Attribution: ChEMBL document CHEMBL1145881

Molecular target: Protein farnesyltransferase (Homo sapiens, UniProt P49354+P49356)
Test: In vitro inhibitory activity against farnesyltransferase (FT)
REPORTED_PROPERTY: IC50 (nM)

I = Cn1cncc1C(OCc1c(-c2ccc(F)c(F)c2)cc(C#N)c(=O)n1C)c1ccc(C#N)cc1 (centres undefined)
II = Cn1cncc1C(OCc1c(-c2ccc(OC(F)(F)F)cc2)cc(C#N)c(=O)n1C)c1ccc(C#N)c(-c2ccc(Cl)cc2)c1 (centres undefined)
Prompt line: When I and II are compared, which has the higher number for IC50? Refer to your chosen item by its label in the answer.
Response line: II
(II: 6.5 nM, I: 1.5 nM)

a = Cn1c(COC(c2ccc(C#N)cc2)c2cncs2)c(-c2cc(Cl)cc(Cl)c2)cc(C#N)c1=O (centres undefined)
b = Cn1cncc1C(OCc1c(-c2cccc(Br)c2)cc(C#N)c(=O)n1C)c1ccc(C#N)cc1 (centres undefined)
Prompt line: Could you tell me which of a and b has the lower IC50 reading? // respond with label for picked entry
Response line: b
(b: 0.51 nM, a: 1.9 nM)
